Measured pIC50 on Mu-type opioid receptor (Cavia porcellus) follows.
Sequence (P97266 whole entry): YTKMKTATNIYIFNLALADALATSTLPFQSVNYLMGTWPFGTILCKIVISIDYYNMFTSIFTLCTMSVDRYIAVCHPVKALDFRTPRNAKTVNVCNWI
// pIC50 here means minus log10 of the molar concentration (mol/L)

// below: answered molecules
[[record]]
smiles_input = "Oc1ccc2c3c1O[C@H]1c4[nH]c5c(c4C[C@@]4(O)[C@@H](C2)N(CC2CC2)CC[C@]314)C[C@@]1(O)[C@H]2Cc3ccc(O)c4c3[C@@]1(CCN2CC1CC1)[C@H]5O4"
recorded_number = 8.08

[[record]]
smiles_input = "Cn1c2c(c3c1[C@@H]1Oc4c(O)ccc5c4[C@@]14CCN(CC1CC1)[C@H](C5)[C@]4(O)C3)C[C@H]1CNCC[C@@H]1C2"
recorded_number = 9.00


Then there is this molecule:
Suppose we examine the molecule Cn1c2c(c3c1[C@@H]1Oc4c(O)ccc5c4[C@@]14CCN(CC1CC1)[C@H](C5)[C@]4(O)C3)C[C@H]1CN(C(=O)OCc3ccccc3)CC[C@@H]1C2 ; what pIC50 value has been reported? 8.77
